System: 5-hydroxytryptamine 1A (5-HT1A) receptors (Homo sapiens (Human), UniProt P08908)
Sequence (P08908 whole entry): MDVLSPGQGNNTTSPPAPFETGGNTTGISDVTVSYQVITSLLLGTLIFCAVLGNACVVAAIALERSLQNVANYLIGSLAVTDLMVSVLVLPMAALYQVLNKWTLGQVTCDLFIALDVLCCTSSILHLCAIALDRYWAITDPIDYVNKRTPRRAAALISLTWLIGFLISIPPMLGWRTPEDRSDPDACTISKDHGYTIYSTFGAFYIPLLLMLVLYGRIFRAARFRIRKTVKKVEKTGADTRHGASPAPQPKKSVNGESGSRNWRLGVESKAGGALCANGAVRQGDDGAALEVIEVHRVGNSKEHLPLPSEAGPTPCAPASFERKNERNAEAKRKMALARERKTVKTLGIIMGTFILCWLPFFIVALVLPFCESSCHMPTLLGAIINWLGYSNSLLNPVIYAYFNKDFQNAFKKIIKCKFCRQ
Measurement Protocol: 5-HT1A receptor β-arrestin2 BRET (recruitment)
Type: cell-based
Applied Conditions: relative to endogenous ligand 5-hydroxytryptamine
The entries below are paired with their reported Emax.
Just the number please, in %, no unit attached.

See these solved cases before continuing.
Compound	Observed
CCOc1cccc2c3c(oc12)CN(CCN1CCCc2c(ccn2C)C1=O)CC3 [I-A41]	14.3
CCOc1cccc2c3c(oc12)CN(CCNC(=O)C1CCCC1)CC3 [I-A33]	25.2
CCOc1cccc2c3c(oc12)CN(CCNC(=O)c1cccs1)CC3 [I-A36]	38.7
CCOc1cccc2c3c(oc12)CN(CCN1CCCc2ccccc2C1=O)CC3 [I-A40]	28.9

IN: Input COc1cccc2c3c(oc12)CN(CCNC(=O)C1CCC(F)(F)CC1)CC3 [I-A15] , output reported Emax.
OUT: 92

IN: Input COc1cccc2c3c(oc12)CN(CCCCn1ncc(=O)n(C)c1=O)CC3 [I-A22] , output reported Emax.
OUT: 49.6

IN: Input COc1cccc2c1cc1n2CCN(CCNC(=O)C2CCOCC2)C1 [I-C8] , output reported Emax.
OUT: 79
